Molecular target: hMC3-R (human) (UniProt P41968)
Sequence (P41968 whole entry): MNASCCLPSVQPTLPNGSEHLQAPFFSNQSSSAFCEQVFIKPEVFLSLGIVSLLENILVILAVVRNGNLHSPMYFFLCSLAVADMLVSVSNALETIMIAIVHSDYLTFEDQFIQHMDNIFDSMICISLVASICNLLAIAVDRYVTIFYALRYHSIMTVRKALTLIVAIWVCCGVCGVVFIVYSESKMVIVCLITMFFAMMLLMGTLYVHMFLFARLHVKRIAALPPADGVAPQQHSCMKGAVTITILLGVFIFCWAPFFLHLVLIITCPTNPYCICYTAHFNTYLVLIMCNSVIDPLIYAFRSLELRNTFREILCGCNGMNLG
Assay: cell-based or functional assay
Bridge positions count the residues as written; N and C are the ends. Square brackets hold non-standard residues; d marks the D form. Ends that are not written are not given here. Bip = N[C@@H](Cc1ccc(-c2ccccc2)cc1)C(=O)O; hArg = N=C(N)NCCCC[C@H](N)C(=O)O; Pen = CC(C)(S)[C@H](N)C(=O)O; Nle = CCCC[C@H](N)C(=O)O; Orn = NCCC[C@H](N)C(=O)O; Dap = NC[C@H](N)C(=O)O; Ava = NCCCCC(=O)O; GABA = NCCCC(=O)O; βAla = NCCC(=O)O
attribute measured: cAMP EC50

binder	cAMP EC50
[Nle]CH[dF]RW[GABA]C-NH2 (disulfide 2-8) [Nle-c(Cys-His-D-Phe-Arg-Trp-Gaba-Cys)-NH2]	0.1 nM
[dF]CH[d(Et)Tyr][hArg][Bip][βAla][dC]T-NH2 (disulfide 2-8) [D-Phe-c(Cys-His-D-(Et)Tyr-hArg-Bip-β-Ala-D-Cys)-Thr-NH2]	81.8 nM

# cAMP EC50 (binder: Ac-[Nle]CH[dF]RW[Ava]C-NH2 (disulfide 2-8; SMILES CCCC[C@H](NC(C)=O)C(=O)N[C@H]1CSSC[C@@H](C(N)=O)NC(=O)CCCCNC(=O)[C@H](Cc2c[nH]c3ccccc23)NC(=O)[C@H](CCCNC(=N)N)NC(=O)[C@@H](Cc2ccccc2)NC(=O)[C@H](Cc2c[nH]cn2)NC1=O) [Ac-Nle-c(Cys-His-D-Phe-Arg-Trp-Apn-Cys)-NH2] ) is 0.199 nM

Form: binder = [Nle]CH[dF]RW[Ava]C-NH2 (disulfide 2-8; N-terminus assumed; SMILES CCCC[C@H](N)C(=O)N[C@H]1CSSC[C@@H](C(N)=O)NC(=O)CCCCNC(=O)[C@H](Cc2c[nH]c3ccccc23)NC(=O)[C@H](CCCNC(=N)N)NC(=O)[C@@H](Cc2ccccc2)NC(=O)[C@H](Cc2c[nH]cn2)NC1=O) [Nle-c(Cys-His-D-Phe-Arg-Trp-Apn-Cys)-NH2] ; cAMP EC50 = 0.27 nM

Record E[dA]H[dF]RW[Dap]-NH2 (lactam 1-7 (inferred); also: residues 1-2 joined in a hydantoin ring (C(O))) [c[Hydantoin(C(O)-(Glu-D-Ala))-His-D-Phe-Arg-Trp-Dap]-NH2] , field cAMP EC50: 18.2 nM

Measured cAMP EC50, RGCAHXRWC (residues 1-2 joined in a hydantoin ring (C(O)); D-Ala4; X6=D-2-Nal; Cys3-Cys9 disulfide; C-terminal amide) [Hydantoin(C(O)-(Arg-Gly))-c(Cys-D-Ala-His-D-2-Nal-Arg-Trp-Cys)-NH2] : 13.1 nM

cAMP EC50 recorded for this binder, D[dA]H[dF]RW[Orn]-NH2 (lactam 1-7; also: residues 1-2 joined in a hydantoin ring (C(O))) [c[Hydantoin(C(O)-(Asp-D-Ala))-His-D-Phe-Arg-Trp-Orn]-NH2] , is 88.6 nM

Reported cAMP EC50 of Ac-[Nle]C[dL]H[dF]RWC-NH2 (disulfide 2-8; SMILES CCCC[C@H](NC(C)=O)C(=O)N[C@H]1CSSC[C@@H](C(N)=O)NC(=O)[C@H](Cc2c[nH]c3ccccc23)NC(=O)[C@H](CCCNC(=N)N)NC(=O)[C@@H](Cc2ccccc2)NC(=O)[C@H](Cc2c[nH]cn2)NC(=O)[C@@H](CC(C)C)NC1=O) [Ac-Nle-c(Cys-D-Leu-His-D-Phe-Arg-Trp-Cys)-NH2] : 0.465 nM

The recorded cAMP EC50 for Ac-[Nle]CH[dF]RW[GABA][Pen]-NH2 (disulfide 2-8) [Ac-Nle-c(Cys-His-D-Phe-Arg-Trp-Gaba-Pen)-NH2] is 0.24 nM
